experiment: The drug is tested on Z-011 corresponding to mouse gut metagenome with ENA study accession number: PRJEB37062 and ENA sample accession number: ERS12561811 for biotransformation under anaerobic condition. The drug concentrations were measured over 9 timepoints collected between 0 and 24 hours of incubation by liquid-chromatography-coupled mass spectrometry (LC–MS); details: 2 µM; also: call rule not given here
Where a SMILES comes first, the peptide text is derived from it. [ ]: non-standard residue; d: D form. pGlu = O=C1CC[C@@H](C(=O)O)N1; Thz = O=C(O)[C@@H]1CSCN1
Parameter Measured: Bacterial Biotransformation

>>> test_value("CCCC(=O)Nc1ccc(OCC(O)CNC(C)C)c(C(C)=O)c1 (stereo unspecified)")
"Compound NOT metabolized"
>>> test_value("Cc1ccc(S(=O)(=O)NC(=O)NN2CC3CCCC3C2)cc1 (stereo unspecified) [GLICLAZIDE]")
"Compound metabolized"
>>> test_value("O=C(CCCN1CCC(O)(c2ccc(Cl)cc2)CC1)c1ccc(F)cc1")
"Compound NOT metabolized"
>>> test_value("C[C@@H]1C[C@H]2[C@@H]3CCC4=CC(=O)C=C[C@]4(C)[C@@]3(F)[C@@H](O)C[C@]2(C)[C@@]1(O)C(=O)CO")
"Compound NOT metabolized"
>>> test_value("NC(CO)(CO)CO.O=C(c1ccccc1)c1ccc2n1CCC2C(=O)O (stereo unspecified)")
"Compound NOT metabolized"
>>> test_value("CC(C)NCC(O)c1ccc(NS(C)(=O)=O)cc1 (stereo unspecified)")
"Compound NOT metabolized"
>>> test_value("O=c1[nH]c2ccccc2n1C1CCN(CCCC(c2ccc(F)cc2)c2ccc(F)cc2)CC1 [PIMOZIDE]")
"Compound metabolized"
>>> test_value("O=C1CC[C@@H](C(=O)N2CSC[C@H]2C(=O)O)N1 [PIDOTIMOD] ([pGlu]-[Thz]-OH)")
"Compound NOT metabolized"
>>> test_value("Clc1ccc(Cn2c(CN3CCCC3)nc3ccccc32)cc1")
"Compound NOT metabolized"
>>> test_value("COc1ccc2[nH]c([S+]([O-])Cc3ncc(C)c(OC)c3C)nc2c1 (stereo unspecified)")
"Compound NOT metabolized"
>>> test_value("CC(Oc1c(Cl)cccc1Cl)C1=NCCN1 (stereo unspecified)")
"Compound NOT metabolized"

====

experiment: The drug is tested on WLS-038 corresponding to human gut metagenome with ENA study accession number: PRJEB37062 and ENA sample accession number: ERS12561745 for biotransformation under anaerobic condition. The drug concentrations were measured over 9 timepoints collected between 0 and 24 hours of incubation by liquid-chromatography-coupled mass spectrometry (LC–MS); conditions: 2 µM
Where a SMILES comes first, the peptide text is derived from it. [ ]: non-standard residue; d: D form. pGlu = O=C1CC[C@@H](C(=O)O)N1; Thz = O=C(O)[C@@H]1CSCN1
Parameter Measured: Bacterial Biotransformation

>>> test_value("COc1ccc2[nH]c([S+]([O-])Cc3ncc(C)c(OC)c3C)nc2c1 (stereo not given) [OMEPRAZOLE]")
"Compound metabolized"
>>> test_value("N#Cc1ccc(C(c2ccc(C#N)cc2)n2cncn2)cc1 [LETROZOLE]")
"Compound NOT metabolized"
>>> test_value("CC(C)NCC(O)COc1ccc(CCOCC2CC2)cc1 (stereo not given) [BETAXOLOL]")
"Compound NOT metabolized"
>>> test_value("O=C(CCCN1CCC(O)(c2ccc(Cl)cc2)CC1)c1ccc(F)cc1 [HALOPERIDOL]")
"Compound NOT metabolized"
>>> test_value("CCOc1ccc(NC(C)=O)cc1 [PHENACETIN]")
"Compound NOT metabolized"
>>> test_value("Nc1nc2ccc(OC(F)(F)F)cc2s1 [RILUZOLE]")
"Compound metabolized"
>>> test_value("COc1ccc2c(c1OC)C(=O)O[C@@H]2[C@H]1c2c(cc3c(c2OC)OCO3)CCN1C [NOSCAPINE]")
"Compound NOT metabolized"
>>> test_value("CN1CCc2c(c3ccccc3n2Cc2ccccc2)C1.CN1CCc2c(c3ccccc3n2Cc2ccccc2)C1.O=S(=O)(O)c1cccc2c(S(=O)(=O)O)cccc12")
"Compound NOT metabolized"
>>> test_value("CC(C)(C(=O)O)c1ccc(C(O)CCCN2CCC(C(O)(c3ccccc3)c3ccccc3)CC2)cc1 (stereo not given) [FEXOFENADINE]")
"Compound NOT metabolized"
>>> test_value("COc1ccc(CCN(C)CCCC(C#N)(c2ccc(OC)c(OC)c2)C(C)C)cc1OC (stereo not given)")
"Compound NOT metabolized"
>>> test_value("Cc1ccnc2c1NC(=O)c1cccnc1N2C1CC1 [NEVIRAPINE]")
"Compound NOT metabolized"
>>> test_value("CN1CC(=O)N2[C@H](c3ccc4c(c3)OCO4)c3[nH]c4ccccc4c3C[C@@H]2C1=O")
"Compound metabolized"
>>> test_value("O=c1n(CCCN2CCN(c3cccc(Cl)c3)CC2)nc2ccccn12 [TRAZODONE]")
"Compound NOT metabolized"
>>> test_value("CCCCCOC(=O)Nc1nc(=O)n([C@@H]2O[C@H](C)[C@@H](O)[C@H]2O)cc1F [CAPECITABINE]")
"Compound metabolized"
>>> test_value("COC1=CC(=O)C[C@@H](C)[C@]12Oc1c(Cl)c(OC)cc(OC)c1C2=O [GRISEOFULVIN]")
"Compound metabolized"
>>> test_value("Cc1ccc(/C(=C\\CN2CCCC2)c2ccccn2)cc1 [TRIPROLIDINE]")
"Compound NOT metabolized"
>>> test_value("CN1CCN(CC/C=C2/c3ccccc3Sc3ccc(S(=O)(=O)N(C)C)cc32)CC1 [THIOTHIXENE]")
"Compound metabolized"
>>> test_value("O=C1CC[C@@H](C(=O)N2CSC[C@H]2C(=O)O)N1 [PIDOTIMOD] ([pGlu]-[Thz]-OH)")
"Compound metabolized"
>>> test_value("O=P(O)(O)O.c1ccc(CN(CC2=NCCN2)c2ccccc2)cc1 [ANTAZOLINE PHOSPHATE]")
"Compound NOT metabolized"
>>> test_value("Fc1ccc([C@@H]2CCNC[C@H]2COc2ccc3c(c2)OCO3)cc1 [PAROXETINE]")
"Compound metabolized"
>>> test_value("Cc1ccc(-c2nc3ccc(C)cn3c2CC(=O)N(C)C)cc1 [ZOLPIDEM]")
"Compound NOT metabolized"
>>> test_value("CC(C(=O)O)c1ccc2c(c1)Cc1cccnc1O2 (stereo not given) [PRANOPROFEN]")
"Compound metabolized"
>>> test_value("O=C(Nc1ccccc1)OCC(CN1CCCCC1)OC(=O)Nc1ccccc1 (stereo not given) [DIPERODON]")
"Compound NOT metabolized"
>>> test_value("COc1ccc2[nH]c([S+]([O-])Cc3ncc(C)c(OC)c3C)nc2n1 (stereo not given) [TENATOPRAZOLE]")
"Compound metabolized"
>>> test_value("CN1C(=O)CCS(=O)(=O)C1c1ccc(Cl)cc1 (stereo not given) [CHLORMEZANONE]")
"Compound NOT metabolized"
